Listing of entries alongside the reported Ki.
Biological target: hM2 muscarinic receptor (Homo sapiens, UniProt P08172)
Construct: expressed in transfected cells; host or cells: CHO cells, stably transfected; membrane fractions
Sequence (P08172 1-466): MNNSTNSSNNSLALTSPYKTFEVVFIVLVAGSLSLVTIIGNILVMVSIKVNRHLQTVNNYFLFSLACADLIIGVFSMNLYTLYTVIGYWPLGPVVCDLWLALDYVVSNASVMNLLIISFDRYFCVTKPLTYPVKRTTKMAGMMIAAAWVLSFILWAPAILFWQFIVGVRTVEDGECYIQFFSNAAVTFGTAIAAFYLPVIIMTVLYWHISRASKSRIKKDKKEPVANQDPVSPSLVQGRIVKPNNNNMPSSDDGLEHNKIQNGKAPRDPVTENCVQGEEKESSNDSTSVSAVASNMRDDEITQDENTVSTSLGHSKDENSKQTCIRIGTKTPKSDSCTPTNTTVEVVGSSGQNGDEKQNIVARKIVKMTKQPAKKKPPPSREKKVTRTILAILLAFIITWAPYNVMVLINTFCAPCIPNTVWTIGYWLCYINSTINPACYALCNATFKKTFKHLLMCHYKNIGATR
Experiment: Equilibrium inhibition binding with [3H]-NMS, CHO cell membranes
Conditions: [3H]-NMS 0.2 nM, mean ± SEM of 3-4 experiments, read-out: pKi hM2 (converted)
Field: numeric (µM). Do not append units.

>>> print(df.to_string())
                                test_smiles                              assay_target  result_units  recorded_result
0  Cc1cc(N)c2ccccc2[n+]1CCCCCCCCCC[n+]1c(C)cc(N)c2ccccc21  hM2 muscarinic receptor (Homo sapiens, UniProt P08172)            µM            0.661
1    N=C(N)c1ccc(/N=N/Nc2ccc(C(=N)N)cc2)cc1  hM2 muscarinic receptor (Homo sapiens, UniProt P08172)            µM             5.62
2             C[n+]1ccc(-c2cc[n+](C)cc2)cc1  hM2 muscarinic receptor (Homo sapiens, UniProt P08172)            µM             23.4

Param item = "C[N+](C)(CCCCCC[N+](C)(C)CCCN1C(=O)c2ccccc2C1=O)CCCN1C(=O)c2ccccc2C1=O" ; retrieve measured Ki.
6.17

====

Listing of entries alongside the reported Ki.
target: hM1 muscarinic receptor (Homo sapiens); construct: expressed in transfected cells; host or cells: CHO cells, stably transfected; membrane fractions; assay: Equilibrium inhibition binding with [3H]-NMS, CHO cell membranes; conditions: [3H]-NMS 0.2 nM, mean ± SEM of 3-4 experiments, read-out: pKi hM1 (converted)
Sequence (P11229 whole entry): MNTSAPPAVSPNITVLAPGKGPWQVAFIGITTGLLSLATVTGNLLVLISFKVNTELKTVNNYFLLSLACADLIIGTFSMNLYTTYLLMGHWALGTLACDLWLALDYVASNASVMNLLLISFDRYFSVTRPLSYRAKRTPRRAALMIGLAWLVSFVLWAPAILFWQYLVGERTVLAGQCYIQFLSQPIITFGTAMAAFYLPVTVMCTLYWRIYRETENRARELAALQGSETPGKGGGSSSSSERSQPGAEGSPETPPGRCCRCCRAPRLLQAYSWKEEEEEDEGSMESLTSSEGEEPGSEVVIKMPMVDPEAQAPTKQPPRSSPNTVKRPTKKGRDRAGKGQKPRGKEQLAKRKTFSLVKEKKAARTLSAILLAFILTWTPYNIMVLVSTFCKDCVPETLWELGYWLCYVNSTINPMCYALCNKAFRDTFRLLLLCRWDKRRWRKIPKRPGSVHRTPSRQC
Field: numeric (nM). Do not append units.

Reference set, count: 4
>>> df
                                   compound  recorded_result
0  [H]/N=C(\N/C(=N/[H])NCCCCCCNC(=N)NC(=N)Nc1ccc(Cl)cc1)Nc1ccc(Cl)cc1 [chlorhexidine]              501
1  OCc1cc(C(O)CNCCCCCCOCCCCc2ccccc2)ccc1O (stereo not drawn) [salmeterol]             3240
2  N=C(N)c1ccc(/N=N/Nc2ccc(C(=N)N)cc2)cc1 [diminazene]             3160
3  C[N+](C)(CCCCCC[N+](C)(C)CCCN1C(=O)c2ccccc2C1=O)CCCN1C(=O)c2ccccc2C1=O [W84]              891

We now examine a further compound.
Param item = Cc1cc(N)c2ccccc2[n+]1CCCCCCCCCC[n+]1c(C)cc(N)c2ccccc21 [dequalinium] ; retrieve measured Ki.
41.7

====

Molecular target: [3H]-NMS-occupied muscarinic hM5 subtype (Homo sapiens)
Construct: expressed in transfected cells; host or cells: CHO cells, stably transfected; membrane fractions
Assay: One point kinetic (off-rate) assay of [3H]-NMS dissociation
Format: binding
Settings: read-out: log Kocc hM5 (converted)
Procedure: All tested compounds were purchased from Merck KGaA (Darmstadt, Germany). […] Nonspecific binding was defined by the radioactivity bound in the presence of 10 µM atropine. […] The effect on the radioligand dissociation of each tested ligand was determined at 0 min and at one time point, which was chosen to be ca 2.5 dissociation half-lives of [^3H]-NMS alone from each subtype receptors. Later (80 min for hM1, 20 min for hM2 and 70 min for hM5), the samples were filtered and counted as previously reported. […]
Listing of entries alongside the reported Kd.
Field: numeric (µM). Do not append units.

Reference set, count: 3
>>> print(df.to_string())
                                   compound  readout_kind  recorded_result
0  Cc1cc(N)c2ccccc2[n+]1CCCCCCCCCC[n+]1c(C)cc(N)c2ccccc21 [dequalinium]            Kd             3.31
1  C[N+](C)(CCCCCC[N+](C)(C)CCCN1C(=O)c2ccccc2C1=O)CCCN1C(=O)c2ccccc2C1=O [W84]            Kd             18.2
2  N=C(N)c1ccc(OCCCCCOc2ccc(C(=N)N)cc2)cc1 [pentamidine]            Kd              182

We now examine a further compound.
Give [3H]-NMS-occupied muscarinic hM5 subtype (Homo sapiens) Kd for [H]/N=C(\N/C(=N/[H])NCCCCCCNC(=N)NC(=N)Nc1ccc(Cl)cc1)Nc1ccc(Cl)cc1 [chlorhexidine]
186

====

target: hM5 muscarinic receptor (Homo sapiens, UniProt P08912); construct: expressed in transfected cells; host or cells: CHO cells, stably transfected; membrane fractions; experiment: Equilibrium inhibition binding with [3H]-NMS, CHO cell membranes; settings: [3H]-NMS 0.2 nM, CHO membranes, mean ± SEM of 3-4 experiments; read-out: pKi hM5 (converted)
Listing of entries alongside the reported Ki.
Field: numeric (nM). Do not append units.

                                   compound  result_units  recorded_result
0  Cc1cc(N)c2ccccc2[n+]1CCCCCCCCCC[n+]1c(C)cc(N)c2ccccc21 [dequalinium]            nM              158
1  [H]/N=C(\N/C(=N/[H])NCCCCCCNC(=N)NC(=N)Nc1ccc(Cl)cc1)Nc1ccc(Cl)cc1 [chlorhexidine]            nM             2240

Param item = OCc1cc(C(O)CNCCCCCCOCCCCc2ccccc2)ccc1O (stereo not shown) [salmeterol] ; retrieve measured Ki.
12600

====

Molecular target: hM5 muscarinic receptor (Homo sapiens, UniProt P08912)
Construct: expressed in transfected cells; host or cells: CHO cells, stably transfected; membrane fractions
Sequence (P08912 1-532): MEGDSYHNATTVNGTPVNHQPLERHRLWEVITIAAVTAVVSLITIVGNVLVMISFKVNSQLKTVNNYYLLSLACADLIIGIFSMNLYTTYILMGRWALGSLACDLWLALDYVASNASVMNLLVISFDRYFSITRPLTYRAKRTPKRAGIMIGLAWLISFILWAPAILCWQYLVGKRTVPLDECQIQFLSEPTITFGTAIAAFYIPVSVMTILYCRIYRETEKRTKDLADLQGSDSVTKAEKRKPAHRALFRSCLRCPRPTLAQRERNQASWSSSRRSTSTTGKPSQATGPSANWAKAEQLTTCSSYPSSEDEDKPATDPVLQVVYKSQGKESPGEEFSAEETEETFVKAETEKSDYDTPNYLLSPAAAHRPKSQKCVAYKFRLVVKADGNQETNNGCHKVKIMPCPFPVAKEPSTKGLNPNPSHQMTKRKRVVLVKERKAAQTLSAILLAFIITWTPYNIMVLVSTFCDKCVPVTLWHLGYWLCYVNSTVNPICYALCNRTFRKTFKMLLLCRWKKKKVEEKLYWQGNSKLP
Assay: Equilibrium inhibition binding with [3H]-NMS, CHO cell membranes
Details: [3H]-NMS 0.2 nM, CHO membranes, mean ± SEM of 3-4 experiments; read-out: pKi hM5 (converted)
readout.kind: Ki (µM)
Field: numeric (µM). Do not append units.

Reference set, count: 4
>>> print(df.to_string())
                                   compound  recorded_result
0  N=C(N)c1ccc(OCCCCCOc2ccc(C(=N)N)cc2)cc1 [pentamidine]             1.74
1  C[N+](C)(CCCCCC[N+](C)(C)CCCN1C(=O)c2ccccc2C1=O)CCCN1C(=O)c2ccccc2C1=O [W84]             9.12
2  N=C(N)c1ccc(/N=N/Nc2ccc(C(=N)N)cc2)cc1 [diminazene]             4.79
3  CC[N+](CC)(CC)CCOc1cccc(OCC[N+](CC)(CC)CC)c1OCC[N+](CC)(CC)CC [gallamine]             2.19

We now examine a further compound.
Param item = CC(=O)N1CCN(c2ccc(OCC3COC(Cn4ccnc4)(c4ccc(Cl)cc4Cl)O3)cc2)CC1 (stereo not drawn) [ketoconazole] ; retrieve measured Ki.
7.94

Values compiled from paper PMC7503225.
